Entry source: patent US10322118B2

Experimental Target: Cif (Pseudomonas aeruginosa (strain UCBPP-PA14))
Sequence (A0A0H2ZD27 25-319 limits assumed): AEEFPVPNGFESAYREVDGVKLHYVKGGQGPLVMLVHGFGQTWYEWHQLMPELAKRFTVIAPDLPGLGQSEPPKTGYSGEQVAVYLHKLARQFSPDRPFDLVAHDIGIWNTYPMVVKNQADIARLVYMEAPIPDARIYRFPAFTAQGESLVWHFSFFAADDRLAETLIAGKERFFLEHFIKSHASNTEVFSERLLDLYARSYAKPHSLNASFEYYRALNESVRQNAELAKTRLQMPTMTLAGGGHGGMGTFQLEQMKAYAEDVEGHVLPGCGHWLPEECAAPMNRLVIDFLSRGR
Assay Remarks: Secondary screen (sextuplicate) with fluorogenic substrate CMNGC;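 further: purified enzyme assay in 96-well plates, 200 µL volume, fluorescence recorded each minute across a 60 min reaction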
Format: biochemical
Condition Set: read-out: % Inhibition, plate 2
Counter-ions that a name gives are not always drawn.
Recorded inhibition at 10 µM, one value per entry.
Metric: inhibition at 10 µM (%)

# Compound, Experimental Target, Metric, Value Measured
data = [
    ("CC(=O)CC(c1ccccc1)c1c(O)c2ccccc2oc1=O (stereo not drawn) [Warfarin]", "Cif (Pseudomonas aeruginosa (strain UCBPP-PA14))", "inhibition at 10 µM", 12),
    ("C=CC1=C(C)c2cc3[nH]c(cc4nc(cc5[nH]c(cc1n2)c(C)c5CCC(=O)O)C(CCC(=O)O)=C4C)c(C)c3C=C [Protoporphyrin ix]", "Cif (Pseudomonas aeruginosa (strain UCBPP-PA14))", "inhibition at 10 µM", 16),
    ("Nc1ccc(S(=O)(=O)Nc2ncccn2)cc1 [Sulfadiazine]", "Cif (Pseudomonas aeruginosa (strain UCBPP-PA14))", "inhibition at 10 µM", 24),
    ("Nc1nc(N)c2nc(-c3ccccc3)c(N)nc2n1 [Triamterene]", "Cif (Pseudomonas aeruginosa (strain UCBPP-PA14))", "inhibition at 10 µM", 17),
    ("CC(C(=O)O)c1cccc(C(=O)c2ccccc2)c1 (stereo not drawn) [Ketoprofen]", "Cif (Pseudomonas aeruginosa (strain UCBPP-PA14))", "inhibition at 10 µM", 14),
    ("COC(=O)/C=C/C(=O)OC [Dimethyl fumarate]", "Cif (Pseudomonas aeruginosa (strain UCBPP-PA14))", "inhibition at 10 µM", -2),
    ("CN1CCCC(n2nc(Cc3ccc(Cl)cc3)c3ccccc3c2=O)CC1 (stereo not drawn) [Azelastine hydrochloride]", "Cif (Pseudomonas aeruginosa (strain UCBPP-PA14))", "inhibition at 10 µM", 31),
    ("CCCCCCCCCCCCCCCCOP(=O)([O-])OCC[N+](C)(C)C [Miltefosine]", "Cif (Pseudomonas aeruginosa (strain UCBPP-PA14))", "inhibition at 10 µM", 3),
    ("CC(C)Cc1ccc(C(C)C(=O)O)cc1 (stereo not drawn) [Ibuprofen]", "Cif (Pseudomonas aeruginosa (strain UCBPP-PA14))", "inhibition at 10 µM", 6),
]
